Reference for the values: paper PMC5897774

- Subject of test: T1, CHC 1–574 (clathrin heavy chain propeller‐ankle fragment) (UniProt Q00610 1-574)
- T1 chain: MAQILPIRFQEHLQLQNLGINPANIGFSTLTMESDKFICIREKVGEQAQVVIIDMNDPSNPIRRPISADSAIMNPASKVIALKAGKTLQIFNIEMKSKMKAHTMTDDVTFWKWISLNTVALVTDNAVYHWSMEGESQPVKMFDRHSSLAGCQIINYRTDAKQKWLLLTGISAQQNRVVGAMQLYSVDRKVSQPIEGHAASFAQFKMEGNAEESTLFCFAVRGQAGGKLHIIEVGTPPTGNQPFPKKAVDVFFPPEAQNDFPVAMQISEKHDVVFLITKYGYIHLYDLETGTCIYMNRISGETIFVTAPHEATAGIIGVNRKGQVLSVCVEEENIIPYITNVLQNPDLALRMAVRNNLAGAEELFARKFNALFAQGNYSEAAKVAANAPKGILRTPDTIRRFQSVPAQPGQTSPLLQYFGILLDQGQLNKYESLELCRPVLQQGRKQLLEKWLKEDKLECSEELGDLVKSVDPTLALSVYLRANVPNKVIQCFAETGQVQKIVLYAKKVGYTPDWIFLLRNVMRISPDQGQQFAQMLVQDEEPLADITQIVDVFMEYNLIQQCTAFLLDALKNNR
- Protocol summary: FP
Non-standard residues stand in square brackets, D forms with d. No end group written: not given here. pS = N[C@@H](COP(=O)(O)O)C(=O)O; FAM = fluorescein label
Measured property: Kd (µM)
Field: numeric (µM). Do not append units.

Returns the measured Kd for the input binder. Input: {FAM}-FKESALAAQ[pS]LYLKFDPLLRDS [FAM‐phospho‐TACC3^CID R555A, K556A] 209
